Values were extracted from PubChem BioAssay (NCI).

Tested on: SK-MEL-5 melanoma
test details: NCI-60 one-dose screen, 48 h (100 = growth as untreated, 0 = no growth, -100 = all killed)
protocol conditions: 10 µM unless noted
This is part of a sample that, as a whole, favours compounds with a hit. Of some 83,000 tested, about 20% had one in any assay.
value type: growth (%)
Give just the number in %; leave the unit off.

// field: growth; key: COc1ccc(NC(=O)CSc2nc(C)c(C(C)=O)n2-c2ccc(Cl)cc2)cc1 ; value = 93.7

Memo: COc1cccc(-c2nc3sccn3c2-c2ccnc(NCCNS(=O)(=O)c3ccc(C(F)(F)F)cc3)c2)c1 , reported growth: 14.9

growth for CC1OC(O[C@H]2/C=C/C=C/C=C/C=C/C=C/C=C/C=C/[C@H](C)[C@@H](O)[C@@H](C)[C@H](C)OC(=O)CC(O)CC(O)CCC(O)C(O)CC(O)C[C@]3(O)C[C@H](O)C(C(=O)O)C(C2)O3)C(O)[C@H](N)C1O (stereo partly drawn) is 35.9

get_value(item= CN1CCN(C(=O)c2c3c(n4ccccc24)C(=O)c2ncccc2C3=O)CC1 , readout=growth) returns 65.6

Record summary for Cc1c(C(=O)N[C@@H](Cc2ccccc2)C(=O)C(=O)NCCc2ccccc2)[nH]c2ccccc2c1=O : reported growth = 97.8

---
Per the record, NS(=O)(=O)c1ccc(-n2nc(C(=O)N/N=C\c3ccc(F)cc3)cc2-c2ccc(Cl)cc2)cc1 has growth of 93.5

growth in this record for COC(=O)[C@]12CC[C@@H](C)[C@H](C)[C@@H]1C1=CC[C@@H]3[C@@]4(C)C(C=O)=C[C@@](C)(COS(C)(=O)=O)C4[C@H](O)C[C@@]3(C)[C@]1(C)CC2 (stereo partly drawn) : -91.6

growth recorded for this molecule, COc1ccc(C(=NN=C(N)N)c2ccc(OC)cc2)cc1 , is 13.9

====

Test system: MDA-MB-435 melanoma
test details: NCI-60 one-dose screen, 48 h (100 = growth as untreated, 0 = no growth, -100 = all killed)
protocol conditions: 10 µM unless noted
This is part of a sample that, as a whole, favours compounds with a hit. Of some 83,000 tested, about 20% had one in any assay.
value type: growth (%)
The response must be a number in % with no trailing unit.

Use the examples below as a reference point.
// field: growth; key: CN(Cc1cnc2nc(N)nc(N)c2n1)c1ccc(C(=O)N[C@@H](CCc2nn[nH]n2)c2nn[nH]n2)cc1 ; value = 38.5

Measured growth, Cn1c(=O)c2[nH]c(NN)nc2n(C)c1=O : 106

growth recorded for this molecule, O=[N+]([O-])c1ccc(-c2cc(-c3ccc(Nc4nc(Nc5ccc(Cl)cc5)nc(Nc5ccc(Cl)cc5)n4)cc3)no2)cc1 , is 103

The reported value for CC(=O)OC[C@H]1OC(Sc2sc(C(=O)c3ccc(Br)cc3)c(N)c2-c2nc3ccccc3s2)[C@H](OC(C)=O)[C@@H](OC(C)=O)[C@@H]1OC(C)=O (stereo not given in full) in terms of growth is 80.7

Now for a further molecule.
Record summary for COc1ccc(-c2nc3c(N)c(CO)c(C)nc3o2)cc1 : reported growth = 103

====

Tested on: A498 renal
test details: NCI-60 one-dose screen, 48 h (100 = growth as untreated, 0 = no growth, -100 = all killed)
protocol conditions: 10 µM unless noted
This is part of a sample that, as a whole, favours compounds with a hit. Of some 83,000 tested, about 20% had one in any assay. Active and inactive are the calls of the source. Rule for the calls: active = growth percent below 10; inactive = the rest.
value type: growth

response.value for O=C1C=C[C@]2(C[C@@H](c3cccc(C(F)(F)F)c3)O[C@@H](c3cccc(C(F)(F)F)c3)O2)O1 (field: growth) = 31% (inactive)

---
Entry CC(=O)OC[C@H]1OC(Sc2sc(C(=O)c3ccc(Br)cc3)c(N)c2-c2nc3ccccc3s2)[C@H](OC(C)=O)[C@@H](OC(C)=O)[C@@H]1OC(C)=O (stereo partly specified) , growth reported as 87.8% (inactive)

Notebook: COc1cccc(-c2nn(-c3ccccc3)cc2-c2ccnc(NCCNC(=O)Nc3ccccc3)c2)c1 , growth read as 43.8% (inactive)

So for CCN(CC)c1nc(SCC(=O)Nc2nc3ccc(C)cc3s2)nc(-c2ccccc2)c1C#N , the logged growth turned out to be 81% (inactive)
